target: 3E10-D31N IgG4 S228P/F234A/L235A/H310Q (synthetic construct, UniProt P01861; SEQ:1-443,SEQ:1-218); assay: BLI; 1:1 model; antibody on AHC2 sensor; RNA 62.5-500 nM; conditions: tags: human IgG4 Fc; chain copies: 2 heavy + 2 light (inferred); hairpin
Sequence (P01861 other isoform, or with tags, fused parts or gaps D31N S228P F234A L235A H310Q D31N S228P F234A L235A H310Q, chain 1 of 2): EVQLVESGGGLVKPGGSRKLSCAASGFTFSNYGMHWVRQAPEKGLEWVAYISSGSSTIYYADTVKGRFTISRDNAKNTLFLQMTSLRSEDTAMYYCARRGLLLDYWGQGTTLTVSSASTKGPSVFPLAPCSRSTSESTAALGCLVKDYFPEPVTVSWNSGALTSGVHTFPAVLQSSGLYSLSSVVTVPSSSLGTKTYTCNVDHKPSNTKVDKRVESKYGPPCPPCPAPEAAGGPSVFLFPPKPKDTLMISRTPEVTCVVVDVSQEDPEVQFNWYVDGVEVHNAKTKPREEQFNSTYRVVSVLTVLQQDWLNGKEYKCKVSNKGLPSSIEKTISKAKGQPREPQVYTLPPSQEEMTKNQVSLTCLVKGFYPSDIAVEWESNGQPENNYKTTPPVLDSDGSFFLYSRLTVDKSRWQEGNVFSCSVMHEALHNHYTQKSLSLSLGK
Sequence (chain, as listed by the source D31N S228P F234A L235A H310Q D31N S228P F234A L235A H310Q, chain 2 of 2): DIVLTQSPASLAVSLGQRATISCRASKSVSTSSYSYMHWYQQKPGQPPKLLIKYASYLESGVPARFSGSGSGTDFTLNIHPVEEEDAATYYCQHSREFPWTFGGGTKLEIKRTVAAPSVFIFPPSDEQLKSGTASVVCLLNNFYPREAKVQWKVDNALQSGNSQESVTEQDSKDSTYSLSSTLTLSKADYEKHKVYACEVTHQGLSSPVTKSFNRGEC
assay readout: Kd (nM)
One number for each entry, in nM.

3p-hpRNA RIG-I agonist (89 nt) (ssRNA, 5'-triphosphate) RNA: GGAGCAAAAGCAGGGUGACAAAGACAUAAUGGAUCCAAACACUGUGUCAAGCUUUCAGGUAGAUUGCUUUCUUUGGCAUGUCCGCAAAC has a reported Kd of 6.58
